- system: human GLP-1 receptor (human, UniProt P43220 24-463)
- Sequence (P43220 24-463): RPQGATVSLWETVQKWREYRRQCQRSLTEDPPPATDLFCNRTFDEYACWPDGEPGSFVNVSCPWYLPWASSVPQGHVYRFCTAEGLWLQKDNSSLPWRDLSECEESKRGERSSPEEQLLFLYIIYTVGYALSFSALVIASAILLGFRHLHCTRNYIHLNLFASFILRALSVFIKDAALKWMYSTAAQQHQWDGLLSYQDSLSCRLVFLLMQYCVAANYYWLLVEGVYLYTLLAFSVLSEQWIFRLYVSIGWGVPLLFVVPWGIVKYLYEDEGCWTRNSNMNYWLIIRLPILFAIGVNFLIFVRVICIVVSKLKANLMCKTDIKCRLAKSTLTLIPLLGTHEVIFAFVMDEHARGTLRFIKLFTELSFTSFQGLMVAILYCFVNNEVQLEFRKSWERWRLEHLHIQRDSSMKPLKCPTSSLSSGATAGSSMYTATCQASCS
- procedure-text: cell-based or functional assay
Recorded Human GLP1R EC50 for the following binders

{"binder": "GLP-1 fusion peptide coupled cyclic PYY peptide conjugate SEQ ID NO:239 (Fc fusion, [cyclo-(G2-COCH2-C30), K(AcBr)11, N-Me-R35]-PYY2-36; Br displaced on conjugation to the linker Cys; C-terminal amide; Cys of the second linker peptide thioether-linked to the Lys11 side chain of the cyclic PYY peptide) HGEGTFTSDVSSYLEEQAAKEFIAWLVKGGGASAPAPAPAPAPAPAPAPAPAPGSCPPCPAPEAAGGPSVFLFPPKPKDTLMISRTPEVTCVVVDVSQEDPEVQFNWYVDGVEVHNAKTKPREEQFNSTYRVVSVLTVLHQDWLNGKEYKCKVSNKGLPSSIEKTISKAKGQPREPQVYTLPPSQEEMTKNQVSLTCLVKGFYPSDIAVEWESNGQPENNYKTTPPVLDSDGSFFLYSRLTVDKSRWQEGNVFSCSVMHEALHNHYTQKSLSLSLGKASGSAPAPAPEEEPCA peptide: GISPEAPGEKASPEELNRYYASLRHYLNCVTRQRY", "Human GLP1R EC50, nM": 0.042}
{"binder": "GLP-1 fusion peptide GF40 (SEQ ID NO:152) (Fc fusion) HGEGTFTSDVSSYLEEQAAKEFIAWLVKGGGASGGGGSGGGGSCPPCPAPEAAGGPSVFLFPPKPKDTLMISRTPEVTCVVVDVSQEDPEVQFNWYVDGVEVHNAKTKPREEQFNSTYRVVSVLTVLHQDWLNGKEYKCKVSNKGLPSSIEKTISKAKGQPREPQVYTLPPSQEEMTKNQVSLTCLVKGFYPSDIAVEWESNGQPENNYKTTPPVLDSDGSFFLYSRLTVDKSRWQEGNVFSCSVMHEALHNHYTQKSLSLSLGKASGSAPAPAPEEEPCA", "Human GLP1R EC50, nM": 0.207}
{"binder": "GLP-1 fusion peptide coupled cyclic PYY peptide conjugate SEQ ID NO:250 (Fc fusion, [cyclo-(G2-E30), S4, K(AcBr)11, psi-(R35,Y36)]-PYY2-36; Br displaced on conjugation to the linker Cys; C-terminal amide; Cys of the second linker peptide thioether-linked to the Lys11 side chain of the cyclic PYY peptide) HGEGTFTSDVSSYLEEQAAKEFIAWLVKGGGASGGGGSGGGGSCPPCPAPEAAGGPSVFLFPPKPKDTLMISRTPEVTCVVVDVSQEDPEVQFNWYVDGVEVHNAKTKPREEQFNSTYRVVSVLTVLHQDWLNGKEYKCKVSNKGLPSSIEKTISKAKGQPREPQVYTLPPSQEEMTKNQVSLTCLVKGFYPSDIAVEWESNGQPENNYKTTPPVLDSDGSFFLYSRLTVDKSRWQEGNVFSCSVMHEALHNHYTQKSLSLSLGKASGSAPAPAPEEEPCA peptide: GISPEAPGEKASPEELNRYYASLRHYLNEVTRQRY", "Human GLP1R EC50, nM": 0.213}
